# ASSAY SUMMARY: Inhibition of Dictyostelium discoideum myosin 2 motor domain-activated ATPase activity by spectrophotometry based PK/LDH coupled ATPase assay
VALUE KIND: IC50 (µM)

Previously resolved entries follow.
| SMI | VALUE KIND | RECORDED RESULT |
| --- | --- | --- |
| COc1c(Br)cc(Br)cc1-c1[nH]c(Br)c(Br)c1Br | IC50 | 91.9 |
| Oc1c(Br)cc(Br)cc1-c1[nH]c(Br)c(Br)c1Br | IC50 | 24.4 |
| Oc1c(Cl)cc(Cl)cc1-c1[nH]c(Cl)c(Cl)c1Cl | IC50 | 126 |

(1) COc1ccccc1-c1[nH]c(Br)c(Br)c1Br
(2) COc1c(Cl)cc(Cl)cc1-c1[nH]c(Cl)c(Cl)c1Cl
(3) Cn1c(Br)c(Br)c(Br)c1-c1cc(Br)cc(Br)c1O
Challenge: List the 3 entries from lowest IC50 to highest IC50 value. Labels, requested order.
Response given: 3, 1, 2
(3: 125 µM, 1: 182 µM, 2: 274 µM)

# credit: ChEMBL document CHEMBL1781890
